- Tested on: MS2 coat protein
- Assay comment: apparent KD of MS2 coat protein; designed switch direction (-1 OFF switch, 1 ON switch): 1; higher = weaker reporter binding
- Study conditions: input ligand: microRNA oligo, concentration not stated
Could you label it Satisfied if measured apparent KD of MS2 coat protein is 40 nM or higher, and Not satisfied otherwise?

[
  {
    "Sequence code": "UUGUUUCGUCAUUAACAUGAGGAUCACCCAUGUAAAGGAGCAGAGGAUAUGCAUGUUUGAUUGUAGCAGAAGGCUGAUUGUUGU [JR_SSNG3_Sub034] (Eterna round: R96, puzzle: Same State NG 3)",
    "Study system": "MS2 coat protein",
    "Group": "Not satisfied"
  }
]

Is apparent KD of MS2 coat protein for AGCUUUUAAUUAGGAUAUGGUCACAUGAGGAUCACCCAUGUAACGAUGAUAUAAUGUGGUCAAGACUAGAAGGGAUCGCUAACA [SameState NG2 #69] (Eterna round: R96, puzzle: Same State NG 2) at or above 40 nM?
Satisfied

Param item: GUUACAUGAGGAUCACCCAUGUAUGUGUGGGAGUAAGUGUCUUAGGAUAUCUAUUAUUGAAAUUAAGAGAAGGAAGAUUGUUGU [JMF's solution 19] (Eterna round: R96, puzzle: Same State NG 3)
Satisfied

Param item: AGGGAGGAUGCAGGAUAUACAAGACAUGAGGAUCACCCAUGUACCUUGUGGAGAAGAAAGGAGAGGUAGAAGGGUAGUGAGGAA [Default title] (Eterna round: R96, puzzle: Same State NG 2)
Not satisfied

Param item: CUGAGAUGUCAAGGAUAUGCUACCGUUUCGGUAGCAGAAGGUGAUCACAUGAGGAUCACCCAUGUAUGCAUGCGUGAGCGUGCU [JL SSNG1 3.59] (Eterna round: R96, puzzle: Same State NG 1)
Not satisfied

Entry source: the supplement of paper PMC9170038
